Attribution: ChEMBL document CHEMBL1129421

- Test system: Monoclonal antibody (mAb)
- run_description: Ability to bind to monoclonal antibody IgE (Lb4), expressed as association constant (LogKA)
Consider the cut-off 5. If the recorded Log KA is strictly smaller, the label is condition met; if not, the label is condition not met.

Worked set:
molecule="CC(C)CC(Nc1ccc([N+](=O)[O-])cc1[N+](=O)[O-])C(=O)O (stereo unspecified)" group_label="condition not met"
molecule="O=C(O)C(Cc1ccccc1)Nc1ccc([N+](=O)[O-])cc1[N+](=O)[O-] (stereo unspecified)" group_label="condition not met"
molecule=N[C@@H](CCCCNc1ccc([N+](=O)[O-])cc1[N+](=O)[O-])C(=O)O group_label="condition met"
molecule="O=C(O)C1CCCN1c1ccc([N+](=O)[O-])cc1[N+](=O)[O-] (stereo unspecified)" group_label="condition not met"
molecule="O=C(O)CC(Nc1ccc([N+](=O)[O-])cc1[N+](=O)[O-])C(=O)O (stereo unspecified)" group_label="condition not met"
molecule=C[N+](C)(C)CC(O)C[N+](C)(C)C group_label="condition met"
molecule="CSCCC(Nc1ccc([N+](=O)[O-])cc1[N+](=O)[O-])C(=O)O (stereo unspecified)" group_label="condition not met"

stdin: Say whether its Log KA is strictly beneath 5. Entry: `O=C(CCC(=O)Oc1ccccc1C(=O)O)Oc1ccccc1C(=O)O`
stdout: condition met

---

- System: Monoclonal antibody (mAb)
- run_description: Ability to bind to monoclonal antibody IgE (Lb4), expressed as association constant (LogKA)
Criterion: Log KA meeting or surpassing 5. Met: YES. Not met: NO.

compound="CC(O)C(Nc1ccc([N+](=O)[O-])cc1[N+](=O)[O-])C(=O)O (stereo not drawn)" group_label=YES
compound=O=C(O)c1ccc2ccccc2c1O group_label=YES
compound="CC(Nc1ccc([N+](=O)[O-])cc1[N+](=O)[O-])C(=O)O (stereo not drawn)" group_label=YES
compound=O[C@@](CCN1CCCCC1)(c1ccccc1)C1CCCC1 group_label=NO
compound=Nc1ccc2ccccc2c1 group_label=YES

stdin: Reported Log KA reaches at least 5 for O=C(O)C(CO)Nc1ccc([N+](=O)[O-])cc1[N+](=O)[O-] (stereo not drawn) ?
stdout: YES

stdin: Reported Log KA reaches at least 5 for O=C(O)C(Cc1c[nH]c2ccccc12)Nc1ccc([N+](=O)[O-])cc1[N+](=O)[O-] (stereo not drawn) ?
stdout: YES

---

- Tested on: Monoclonal antibody (mAb)
- run_description: Ability to bind to monoclonal antibody IgE (Lb4), expressed as association constant (LogKA)
Could you please report measured Log KA for the items listed next?
Numbers only.

compound=O=C(O)CNc1ccc([N+](=O)[O-])cc1[N+](=O)[O-] assay_readout="Log KA" endpoint_value=4.9
compound=N#C/C(=C\c1ccccc1)C(=O)O assay_readout="Log KA" endpoint_value=5.04

Note: attention shifts to another entry.
stdin: Requested field: Log KA. Item: NC(=O)CC(Nc1ccc([N+](=O)[O-])cc1[N+](=O)[O-])C(=O)O (stereo not drawn)
stdout: 4.92

---

- Test system: Monoclonal antibody (mAb)
- run_description: Ability to bind to monoclonal antibody IgE (Lb4), expressed as association constant (LogKA)
Could you please report measured Log KA for the items listed next?
Numbers only.

Hey, quick one: what's Log KA for each of these?
1. CC(=O)Nc1nnc(S(N)(=O)=O)s1
2. NC(=O)CCC(Nc1ccc([N+](=O)[O-])cc1[N+](=O)[O-])C(=O)O (stereo unspecified)
3. N=C(N)NCCC[C@H](Nc1ccc([N+](=O)[O-])cc1[N+](=O)[O-])C(=O)O
4. Cc1ccc(O)c(C(=O)O)c1
5. O=C(O)c1cccc(C(=O)O)c1C(=O)O
6. O=C(O)C(Cc1ccc(O)cc1)Nc1ccc([N+](=O)[O-])cc1[N+](=O)[O-] (stereo unspecified)

stdout:
5
5.08
5.04
5.38
4.77
4.85

Hey, quick one: what's Log KA for each of these?
1. O=C(O)CCC(Nc1ccc([N+](=O)[O-])cc1[N+](=O)[O-])C(=O)O (stereo unspecified)
2. CC(C)C(Nc1ccc([N+](=O)[O-])cc1[N+](=O)[O-])C(=O)O (stereo unspecified)
3. Nc1ccc(/N=N/c2ccccc2)c(N)n1
4. O=[N+]([O-])c1ccc(O)c([N+](=O)[O-])c1

stdout:
[4.63, 5.93, 6.5, 4.89]

stdin: Requested field: Log KA. Item: `O[C@](CCN1CCCCC1)(c1ccccc1)C1CCCC1`
stdout: 4.84
